Test system: MCF-7 cells
Test Protocol: MTT assay for cell proliferation, MCF-7
Assay type: cell-based
Set-up: key: inhibition rate = 1 - mean A490 sample/mean A490 control (fraction)
Condition Description: given as fraction; second of three experiments
Provide the reported Inhibitory rate of each item.

Inhibitory rate measured on `COc1c2n(cc(C(=O)Nc3cccc(-c4cn(-c5cc(C(F)(F)F)cc(C(F)(F)F)c5)nn4)c3)c1=O)C[C@H]1OC[C@H](C)N1C2=O` = 0.6364

Inhibitory rate measured on `COc1c2n(cc(C(=O)Nc3cccc(-c4cn(-c5c(C)cc(C)cc5C)nn4)c3)c1=O)C[C@H]1OC[C@H](C)N1C2=O` = 0.5326

Inhibitory rate measured on `COc1c2n(cc(C(=O)Nc3cccc(-c4cn(-c5ccccc5C)nn4)c3)c1=O)C[C@H]1OC[C@H](C)N1C2=O` = 0.4254

Inhibitory rate measured on `COc1c2n(cc(C(=O)Nc3cccc(-c4cn(-c5cccc(C(F)(F)F)c5)nn4)c3)c1=O)C[C@H]1OC[C@H](C)N1C2=O` = 0.5745

Inhibitory rate measured on `COc1c2n(cc(C(=O)Nc3cccc(-c4cn(-c5ccc(C(F)(F)F)cc5)nn4)c3)c1=O)C[C@H]1OC[C@H](C)N1C2=O` = 0.3141

Inhibitory rate measured on `COc1c2n(cc(C(=O)Nc3cccc(-c4cn(-c5cccc(F)c5)nn4)c3)c1=O)C[C@H]1OC[C@H](C)N1C2=O` = 0.536

Inhibitory rate measured on `CCc1ccccc1-n1cc(-c2cccc(NC(=O)c3cn4c(c(OC)c3=O)C(=O)N3[C@@H](C)CO[C@@H]3C4)c2)nn1` = 0.5179

----------
Test system: KYSE-30 cells
Test Protocol: MTT assay for cell proliferation, KYSE-30
Format: cell-based
Parameters: key: inhibition rate = 1 - mean A490 sample/mean A490 control (fraction)
Condition Description: KYSE-30, given as fraction; second of three experiments
Please note: class 1 applies when Inhibitory rate is 0.5 or greater, and class 0 applies otherwise.

QUERY: Tell me whether Inhibitory rate is at least 0.5 here: COc1ccccc1-n1cc(-c2cccc(NC(=O)c3cn4c(c(OC)c3=O)C(=O)N3[C@@H](C)CO[C@@H]3C4)c2)nn1 [KJ-7]
RESULT: class 0

QUERY: Tell me whether Inhibitory rate is at least 0.5 here: COc1c2n(cc(C(=O)Nc3cccc(-c4cn(-c5ccccc5Br)nn4)c3)c1=O)CC1OCC(C)N1C2=O (stereo not shown) [KJ-13]
RESULT: class 0

QUERY: Tell me whether Inhibitory rate is at least 0.5 here: COc1c2n(cc(C(=O)Nc3cccc(-c4cn(-c5ccccc5Cl)nn4)c3)c1=O)CC1OCC(C)N1C2=O (stereo not shown) [KJ-19]
RESULT: class 1

QUERY: Tell me whether Inhibitory rate is at least 0.5 here: COc1c2n(cc(C(=O)Nc3cccc(-c4cn(-c5ccccc5OC(F)(F)F)nn4)c3)c1=O)C[C@H]1OC[C@H](C)N1C2=O [KJ-9]
RESULT: class 1

QUERY: Tell me whether Inhibitory rate is at least 0.5 here: COc1c2n(cc(C(=O)Nc3cccc(-c4cn(-c5cc(C(F)(F)F)ccc5C(F)(F)F)nn4)c3)c1=O)CC1OCC(C)N1C2=O (stereo not shown) [KJ-11]
RESULT: class 0

QUERY: Tell me whether Inhibitory rate is at least 0.5 here: COc1c2n(cc(C(=O)Nc3cccc(-c4cn(-c5cccc(F)c5)nn4)c3)c1=O)C[C@H]1OC[C@H](C)N1C2=O [KJ-6]
RESULT: class 1

QUERY: Tell me whether Inhibitory rate is at least 0.5 here: COc1c2n(cc(C(=O)Nc3cccc(-c4cn(-c5ccccc5C(F)(F)F)nn4)c3)c1=O)C[C@H]1OC[C@H](C)N1C2=O [KJ-1]
RESULT: class 0

----------
Provide the reported IC50 of each item.
Tested on: KYSE-30 cells
Test Protocol: MTT assay for cell proliferation, KYSE-30
Format: cell-based
Condition Description: Homo sapiens, KYSE-30, KYSE-30, one of three experiments; unit inferred; read-out: IC50, single experiment, KYSE-30
Give the value in µM but do not write µM after it.

IC50 measured on COc1c2n(cc(C(=O)Nc3cccc(-c4cn(-c5cc(C(F)(F)F)cc(C(F)(F)F)c5)nn4)c3)c1=O)C[C@H]1OC[C@H](C)N1C2=O [KJ-5] = 8.96

IC50 measured on COc1c2n(cc(C(=O)Nc3cccc(-c4cn(-c5c(C)cc(C)cc5C)nn4)c3)c1=O)C[C@H]1OC[C@H](C)N1C2=O [KJ-12] = 11.8

----------
Test system: HeLa cells
Test Protocol: MTT assay for cell proliferation, HeLa
Format: cell-based
Condition Description: preliminary screening, Hela, 16 μM, 48 h, mean±SD; unit not given
Quantity: Inhibition rate (16μM), 48 h, Hela

Inhibition rate (16μM), 48 h, Hela measured on COc1c2n(cc(C(=O)Nc3cccc(-c4cn(-c5ccc(F)cc5)nn4)c3)c1=O)CC1OCC(C)N1C2=O (stereo not drawn) = 51.02±5.15

Inhibition rate (16μM), 48 h, Hela measured on `COc1c2n(cc(C(=O)Nc3cccc(-c4cn(-c5ccccc5C(F)(F)F)nn4)c3)c1=O)C[C@H]1OC[C@H](C)N1C2=O` = 44.98±3.26

Inhibition rate (16μM), 48 h, Hela measured on COc1c2n(cc(C(=O)Nc3cccc(-c4cn(-c5cc(C(F)(F)F)ccc5C(F)(F)F)nn4)c3)c1=O)CC1OCC(C)N1C2=O (stereo not drawn) = 22.31±2.4

----------
Provide the reported ODtreated/ODcontrol of each item.
Tested on: MCF-7 cells
Test Protocol: MTT assay for cell proliferation, MCF-7
Format: cell-based
Condition Description: third of three experiments
Answer as a number with no unit attached.

The compound `COc1c2n(cc(C(=O)Nc3cccc(-c4cn(-c5ccccc5F)nn4)c3)c1=O)C[C@H]1OC[C@H](C)N1C2=O` on MCF-7 cells: ODtreated/ODcontrol was 0.5499

The compound `COc1c2n(cc(C(=O)Nc3cccc(-c4cn(-c5ccccc5C(F)(F)F)nn4)c3)c1=O)C[C@H]1OC[C@H](C)N1C2=O` on MCF-7 cells: ODtreated/ODcontrol was 0.6227

The compound COc1c2n(cc(C(=O)Nc3cccc(-c4cn(-c5cccc(Br)c5)nn4)c3)c1=O)CC1OCC(C)N1C2=O (stereo not shown) on MCF-7 cells: ODtreated/ODcontrol was 0.3945

The compound `COc1c2n(cc(C(=O)Nc3cccc(-c4cn(-c5ccc(C(F)(F)F)cc5)nn4)c3)c1=O)C[C@H]1OC[C@H](C)N1C2=O` on MCF-7 cells: ODtreated/ODcontrol was 0.7092

The compound COc1c2n(cc(C(=O)Nc3cccc(-c4cn(-c5ccccc5Br)nn4)c3)c1=O)CC1OCC(C)N1C2=O (stereo not shown) on MCF-7 cells: ODtreated/ODcontrol was 0.7807

The compound `COc1c2n(cc(C(=O)Nc3cccc(-c4cn(-c5ccccc5OC(F)(F)F)nn4)c3)c1=O)C[C@H]1OC[C@H](C)N1C2=O` on MCF-7 cells: ODtreated/ODcontrol was 0.3853

The compound COc1c2n(cc(C(=O)Nc3cccc(-c4cn(-c5ccc(F)cc5)nn4)c3)c1=O)CC1OCC(C)N1C2=O (stereo not shown) on MCF-7 cells: ODtreated/ODcontrol was 0.4597

----------
Test system: MCF-7 cells
Test Protocol: MTT assay for cell proliferation, MCF-7
Assay type: cell-based
Condition Description: third of three experiments
Quantity: ODtreated/ODcontrol
Answer as a number with no unit attached.

ODtreated/ODcontrol measured on COc1c2n(cc(C(=O)Nc3cccc(-c4cn(-c5ccccc5)nn4)c3)c1=O)CC1OCC(C)N1C2=O (stereo not drawn) = 0.5631

ODtreated/ODcontrol measured on COc1c2n(cc(C(=O)Nc3cccc(-c4cn(-c5ccccc5I)nn4)c3)c1=O)CC1OCC(C)N1C2=O (stereo not drawn) = 0.6686

ODtreated/ODcontrol measured on `COc1ccccc1-n1cc(-c2cccc(NC(=O)c3cn4c(c(OC)c3=O)C(=O)N3[C@@H](C)CO[C@@H]3C4)c2)nn1` = 0.6406

ODtreated/ODcontrol measured on `CCc1ccccc1-n1cc(-c2cccc(NC(=O)c3cn4c(c(OC)c3=O)C(=O)N3[C@@H](C)CO[C@@H]3C4)c2)nn1` = 0.5941

ODtreated/ODcontrol measured on COc1c2n(cc(C(=O)Nc3cccc(-c4cn(-c5cc(C(F)(F)F)ccc5C(F)(F)F)nn4)c3)c1=O)CC1OCC(C)N1C2=O (stereo not drawn) = 0.7984

ODtreated/ODcontrol measured on `COc1c2n(cc(C(=O)Nc3cccc(-c4cn(-c5c(C)cc(C)cc5C)nn4)c3)c1=O)C[C@H]1OC[C@H](C)N1C2=O` = 0.4331

ODtreated/ODcontrol measured on `COc1c2n(cc(C(=O)Nc3cccc(-c4cn(-c5ccccc5C)nn4)c3)c1=O)C[C@H]1OC[C@H](C)N1C2=O` = 0.6695

ODtreated/ODcontrol measured on COc1c2n(cc(C(=O)Nc3cccc(-c4cn(-c5cccc(Cl)c5)nn4)c3)c1=O)CC1OCC(C)N1C2=O (stereo not drawn) = 0.3996

ODtreated/ODcontrol measured on `COc1c2n(cc(C(=O)Nc3cccc(-c4cn(-c5cccc(F)c5)nn4)c3)c1=O)C[C@H]1OC[C@H](C)N1C2=O` = 0.481

ODtreated/ODcontrol measured on `COc1c2n(cc(C(=O)Nc3cccc(-c4cn(-c5cccc(C(F)(F)F)c5)nn4)c3)c1=O)C[C@H]1OC[C@H](C)N1C2=O` = 0.442

ODtreated/ODcontrol measured on `COc1c2n(cc(C(=O)Nc3cccc(-c4cn(-c5cc(C(F)(F)F)cc(C(F)(F)F)c5)nn4)c3)c1=O)C[C@H]1OC[C@H](C)N1C2=O` = 0.3939

ODtreated/ODcontrol measured on COc1c2n(cc(C(=O)Nc3cccc(-c4cn(-c5ccccc5Cl)nn4)c3)c1=O)CC1OCC(C)N1C2=O (stereo not drawn) = 0.3837

Data provenance: paper PMC10590056
